Experiment: amyloid nucleation score (Sup35N fusion, yeast selection) (log enrichment); library NNK3; higher = more nucleation; inactive = no reads after selection;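 further: zero at mode of non-aggregating sequences after 7 days selection at 30°C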
MEASURE: amyloid nucleation score

Q. Quote amyloid nucleation score reported for IRSAVVV please.
A. -0.53

Q. Give recorded amyloid nucleation score. WILFCKNGAVTNLLVWECLC
A. inactive

Q. Provide measured amyloid nucleation score value, entry: RFQYLNYCMFMVRCGHYDTS
A. inactive

Q. Please give measured amyloid nucleation score of the following entry: MWHLTF
A. inactive

Q. Report measured amyloid nucleation score; entry is VTLMLSITSP
A. inactive

Q. Look up amyloid nucleation score of ALNIPVTRGTTPAWFLILLD and report it.
A. inactive

Q. Provide measured amyloid nucleation score value, entry: CDFIDVS
A. inactive

Q. Provide measured amyloid nucleation score value, entry: DFHDLEWILNIEGACEEQGT
A. inactive

For each entry beneath this line, provide reported amyloid nucleation score.
1. LFLIGLLGRCDGDFYCIYYT
2. IALGWFVIRFDEVVKLFKMF
3. DFCLCNIRVFPEYRSHYGFG
4. SEYMNLYTVTTHRTPS

A.
[1.04, "inactive", "inactive", "inactive"]
